# assay info: MMV: MTT Cytotoxicity Assay Day 3 pi, U87-CD4-CXCR4 cells, % cell death @ 5mM compound
# Format: toxicity, cell-based
# protocol conditions: human, u87-cd4-cxcr4, 5000 µM
Lab note: anything with % Cell Death at or over 20 counts as yes (1); the rest go in no (0).

O=C(NCC(c1ccsc1)N1CCCCCC1)c1ccc(C(F)(F)F)cc1 (stereo unspecified)
yes (1)
CCCN(CCC)CCCNC(=O)c1cc2c(-c3ccc(OC)c(OC)c3)nn(C)c2s1
no (0)
COc1ccc(C(=O)C(CCC(CNC(C)(C)C)C(=O)c2ccc(OC)cc2)CNC(C)(C)C)cc1 (stereo unspecified)
yes (1)
COc1ccc(C)c2sc(N(Cc3cccnc3)C(=O)c3ccc(C#N)cc3)nc12
yes (1)
COc1cc(CNCCc2ccc(Cl)cc2)cc(OC)c1O
yes (1)
Cl.Cn1c(=O)n(C)c2cc(CNCCNc3ccnc4cc(Cl)ccc34)ccc21
yes (1)
